target: UniProt P09917; test: In vitro inhibition of LTB4 biosynthesis in [Ca(2+)]-ionophore-activated human polymorphonuclear leukocytes; type: functional
Sequence (P09917 whole entry): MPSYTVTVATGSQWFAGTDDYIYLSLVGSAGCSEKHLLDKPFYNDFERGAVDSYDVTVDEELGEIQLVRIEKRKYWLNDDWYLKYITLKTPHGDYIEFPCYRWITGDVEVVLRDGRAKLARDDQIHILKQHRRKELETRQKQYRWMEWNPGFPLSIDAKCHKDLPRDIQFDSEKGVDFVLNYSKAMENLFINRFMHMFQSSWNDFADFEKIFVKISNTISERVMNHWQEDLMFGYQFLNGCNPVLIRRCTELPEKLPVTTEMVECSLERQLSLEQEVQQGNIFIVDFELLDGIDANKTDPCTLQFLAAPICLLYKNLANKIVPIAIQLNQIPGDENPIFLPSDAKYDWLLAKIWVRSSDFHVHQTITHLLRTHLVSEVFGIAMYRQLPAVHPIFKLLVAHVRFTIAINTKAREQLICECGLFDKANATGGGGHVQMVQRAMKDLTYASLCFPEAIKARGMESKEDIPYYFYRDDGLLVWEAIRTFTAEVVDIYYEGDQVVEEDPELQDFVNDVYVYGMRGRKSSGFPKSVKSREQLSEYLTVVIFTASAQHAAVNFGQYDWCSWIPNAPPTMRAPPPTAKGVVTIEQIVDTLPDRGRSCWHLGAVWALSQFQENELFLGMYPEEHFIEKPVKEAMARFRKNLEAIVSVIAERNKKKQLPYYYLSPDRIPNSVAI
Below, each entry is listed with its recorded log10(IC50).
Heads up: the numbers are on a log10 scale; they represent IC50 in nM.

In [3]: df
Out[3]:
                                   molecule  endpoint_result
0  CC1Cc2c(OCc3cccc(-c4ccccc4)n3)ccc3c2c(c(CC(C)(C)C(=O)O)n3Cc2ccc(Cl)cc2)S1 (centres undefined)             1.43
1  CC1Cc2c(OCc3ccc(-c4ccccc4)cn3)ccc3c2c(c(CC(C)(C)C(=O)O)n3Cc2ccc(-c3ccccc3)cn2)S1 (centres undefined)             1.20
2  CC1Cc2c(OCc3ccc(-c4ccccc4)cn3)ccc3c2c(c(CC(C)(C)CCC(=O)O)n3Cc2ccc(Cl)cc2)S1 (centres undefined)             1.28
3  CC1Cc2c(OCCc3ccc(-c4ccccc4)cn3)ccc3c2c(c(CC(C)(C)Cc2nnn[nH]2)n3Cc2ccc(Cl)cc2)S1 (centres undefined)             1.66
4  CCCCn1c(CC(C)(C)C(=O)O)c2c3c(c(OCc4ccc(-c5ccccc5)cn4)ccc31)CC(C)S2 (centres undefined)             1.98

// log10(IC50) value for CC1Cc2c(OCc3ccc(-c4ccccc4)cn3)ccc3c2c(c(CC(C)(C)C(=O)O)n3Cc2ccc(Cl)cc2)S1(=O)=O (centres undefined) : 2.32

Field log10(IC50) (entry CC1Cc2c(OCc3cccs3)ccc3c2c(c(CC(C)(C)C(=O)O)n3Cc2ccc(Cl)cc2)S1 (centres undefined) ) reads 1.45

// recorded log10(IC50) for CC1Cc2c(OCc3ccc(-c4ccccc4)cn3)ccc3c2c(c(CC(C)(C)CC(=O)O)n3Cc2ccc(Cl)cc2)S1 (centres undefined) : 1.08

log10(IC50) reading for CC1Cc2c(OCc3ccc(-c4ccccc4)cn3)ccc3c2c(c(CC(C)(C)C(=O)O)n3Cc2ccccn2)S1 (centres undefined) : 2.04

// sample CC1Cc2c(OCc3ccc(-c4ccccc4)cn3)ccc3[nH]c(CC(C)(C)C(=O)O)c(c23)S1 (centres undefined) , its log10(IC50) was 2.70

###

biological target: UniProt P09917; test: In vitro inhibition of LTB4 biosynthesis in [Ca(2+)]-ionophore-activated human polymorphonuclear leukocytes; format: functional
property: IC50 (nM)
Write down the numeric answer in nM and omit the unit.

Would you please look over these solved cases?
>>> df
                                   compound  property  endpoint_result
0  CC1Cc2c(OCc3ccc(-c4ccccc4)cn3)ccc3c2c(c(CC(C)(C)C(=O)O)n3Cc2ccc(Cl)cc2)S1 (centres undefined)      IC50               22
1  CCC1Cc2c(OCc3ccc(-c4ccccc4)cn3)ccc3c2c(c(CC(C)(C)C(=O)O)n3Cc2ccc(Cl)cc2)S1 (centres undefined)      IC50               33
2  CC1Cc2c(OCc3ccc(-c4ccccc4)cn3)ccc3c2c(c(CC(C)(C)C(=O)O)n3CC2CCCCC2)S1 (centres undefined)      IC50               33

Shifting focus to the compound that follows.
get_value(item= CC1Cc2c(OCc3ccc(-c4ccccc4)cn3)ccc3c2c(c(CCC(=O)O)n3Cc2ccc(Cl)cc2)S1 (centres undefined) , readout=IC50) returns 38
